Each record here notes measured OD450.
assayed_target: T1, Peptide 4: Biotin-AGGGGSGGGGSGGGGSAAA-Tyr-acid (N-terminal biotin; C-terminal acid; no PC)
T1 construct: control peptide without PC
T1 peptide: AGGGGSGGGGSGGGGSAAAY
assay_method_text: scFv ELISA
A complete answer gives the number followed by the unit.

Please review the entries below; each comes with its answer.
binder: PcOxP_DB02_C12 (scFv, V domains shown, scFv in periplasmic extract) VH: EVQLLESGGGLVQPGGSLRLSCAASGFTFSDHYMEWVRQAPGKGLEWVAASRNKANDYTTEYADSVKGRFTISRDNSKNTLYLQMNSLRAEDTAVYYCARDYYGSSYWYFDVWGQGTLVTVSS VL: DIVMTQSPDSLAVSLGERATINCTASESLYSSKHKVHYLAWYQQKPGQPPKLLIYGAHNRYIGVPDRFSGSGSGTDFTLTISSLQAEDVAVYYCANFYSYPLTFGGGTKVEIK
OD450: 0.04 OD450
//
binder: PcOxP_DB01_E08 (scFv, V domains shown, scFv in periplasmic extract) VH: EVQLLESGGGLVQPGGSLRLSCAASGDTFSDFYMEWVRQAPGKGLEWVAASRNKANAYTTEYADSVKGRFTISRDNSKNTLYLQMNSLRAEDTAVYYCARDYYGQSYWYFDVWGQGTLVTVSS VL: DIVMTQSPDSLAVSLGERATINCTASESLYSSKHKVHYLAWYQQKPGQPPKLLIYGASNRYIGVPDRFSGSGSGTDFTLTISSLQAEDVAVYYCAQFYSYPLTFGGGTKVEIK
OD450: 0.05 OD450
//
binder: PcOxP_DB02_C08 (scFv, V domains shown, scFv in periplasmic extract) VH: EVQLLESGGGLVQPGGSLRLSCAASGFTFSDPYMEWVRQAPGKGLEWVAASRNKANDYTTEYADSVKGRFTISRDNSKNTLYLQMNSLRAEDTAVYYCARDYYGSPYWYFDVWGQGTLVTVSS VL: DIVMTQSPDSLAVSLGERATINCGASESLYSSKSKVHYLAWYQQKPGQPPKLLIYGASNRYIGVPDRFSGSGSGTDFTLTISSLQAEDVAVYYCAQFYSYPLTFGGGTKVEIK
OD450: 0.06 OD450

The measured OD450 associated with PcOxP_DB02_C05 (scFv, V domains shown, scFv in periplasmic extract) VH: EVQLLESGGGLVQPGGSLRLSCAASGFTASDFYMEWVRQAPGKGLEWVAASRNKANDYTTEYADSVKGRFTISRDNSKNTLYLQMNSLRAEDTAVYYCARDYYGSSYWYFDVWGQGTLVTVSS VL: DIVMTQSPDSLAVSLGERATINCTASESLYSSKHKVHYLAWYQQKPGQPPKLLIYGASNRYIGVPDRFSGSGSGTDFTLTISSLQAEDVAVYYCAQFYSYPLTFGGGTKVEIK reads 0.04 OD450

OD450 measured on PcOxP_DB03_H07 (scFv, V domains shown, scFv in periplasmic extract) VH: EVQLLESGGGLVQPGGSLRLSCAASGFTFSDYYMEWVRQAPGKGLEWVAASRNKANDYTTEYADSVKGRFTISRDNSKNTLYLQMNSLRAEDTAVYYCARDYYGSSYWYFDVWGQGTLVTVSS VL: DIQMTQSPSSLSASVGDRVTITCTASESLYSSKHKVHYLAWYQQKPGKAPKLLIYGASNRDIGVPSRFSGSGSGTDFTLTISSLQPEDFATYYCGQFYSYPLTFGGGTKVEIK = 0.05 OD450
